Entries annotated with measured inhibition at 1 µM
# SYSTEM UNDER TEST: human ANO6 (Homo sapiens, UniProt Q4KMQ2)
# Construct: expressed in transfected cells
# Sequence (Q4KMQ2 1-931 isoform Q4KMQ2-2): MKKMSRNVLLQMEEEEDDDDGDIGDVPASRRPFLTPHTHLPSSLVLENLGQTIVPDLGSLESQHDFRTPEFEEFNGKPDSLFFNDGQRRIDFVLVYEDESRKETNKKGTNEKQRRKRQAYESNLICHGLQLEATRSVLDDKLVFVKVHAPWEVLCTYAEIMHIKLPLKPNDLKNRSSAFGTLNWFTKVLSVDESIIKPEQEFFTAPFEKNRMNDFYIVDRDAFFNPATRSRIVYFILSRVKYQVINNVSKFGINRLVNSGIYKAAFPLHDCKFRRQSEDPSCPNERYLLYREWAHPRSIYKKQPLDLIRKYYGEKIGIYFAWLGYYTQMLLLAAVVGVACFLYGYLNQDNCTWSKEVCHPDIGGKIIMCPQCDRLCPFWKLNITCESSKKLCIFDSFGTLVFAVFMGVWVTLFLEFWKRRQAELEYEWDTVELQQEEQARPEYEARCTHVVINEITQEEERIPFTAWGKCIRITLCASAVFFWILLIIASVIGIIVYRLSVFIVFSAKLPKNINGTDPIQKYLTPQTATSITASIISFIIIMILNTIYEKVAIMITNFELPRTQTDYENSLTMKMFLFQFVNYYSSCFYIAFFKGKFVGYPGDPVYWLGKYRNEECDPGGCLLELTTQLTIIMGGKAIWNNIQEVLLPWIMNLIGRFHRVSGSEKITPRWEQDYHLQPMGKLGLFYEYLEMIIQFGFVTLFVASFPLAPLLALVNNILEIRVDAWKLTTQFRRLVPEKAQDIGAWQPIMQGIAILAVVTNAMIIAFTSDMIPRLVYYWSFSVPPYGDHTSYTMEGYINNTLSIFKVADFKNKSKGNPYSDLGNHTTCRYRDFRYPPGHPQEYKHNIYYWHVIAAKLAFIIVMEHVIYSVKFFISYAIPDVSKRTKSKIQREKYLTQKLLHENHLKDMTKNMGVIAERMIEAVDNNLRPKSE
# ASSAY REMARKS: YFP quenching assay (ANO6 ion channel activity)
# Format: cell-based
# CONDITIONS: test compound 1 μM, 10 μM ionomycin, read-out: Inhibition Level 1 μM

The following compounds have reported results that may help.
Cc1ccc(CNC(=O)c2cccc(Nc3ncc(-c4cc5ccccc5o4)cn3)c2)o1
< 30%
O=C(NCCc1ccccc1)c1cccc(Nc2ccc(-c3cccc(F)c3)cn2)c1
≥ 60%
Cc1ccc(CNC(=O)c2cccc(Nc3ncc(-c4ccccc4)cn3)c2)o1
30 to 60%
Cc1ccc(CNC(=O)c2cccc(Nc3ncc(-c4ccoc4C)cn3)c2)o1
≥ 60%
COc1ccc(CCNC(=O)c2cccc(Nc3ncc(-c4ccccc4)cn3)c2)cc1
30 to 60%

Problem: Give human ANO6 (Homo sapiens, UniProt Q4KMQ2) inhibition at 1 µM for Cc1ccc(CNC(=O)c2cccc(Nc3nnccc3C)c2)o1
Result: < 30%

Problem: Give human ANO6 (Homo sapiens, UniProt Q4KMQ2) inhibition at 1 µM for O=C(NCCc1cccc(C(F)(F)F)c1)c1cccc(Nc2ncc(-c3cccc(F)c3)cn2)c1
Result: ≥ 60%

Problem: Give human ANO6 (Homo sapiens, UniProt Q4KMQ2) inhibition at 1 µM for Cc1ccc(CNC(=O)c2cccc(Nc3ccc(-c4cscc4C)nn3)c2)o1
Result: ≥ 60%

Problem: Give human ANO6 (Homo sapiens, UniProt Q4KMQ2) inhibition at 1 µM for CCc1ccc(Nc2cccc(C(=O)NCc3ccc(C)o3)c2)nn1
Result: < 30%

Problem: Give human ANO6 (Homo sapiens, UniProt Q4KMQ2) inhibition at 1 µM for Cc1ccc(CNC(=O)c2cccc(Nc3ccc(-c4ccccc4)nn3)c2)cc1
Result: ≥ 60%

###

# SYSTEM UNDER TEST: human ANO6 (Homo sapiens)
# Construct: expressed in transfected cells
# ASSAY REMARKS: YFP quenching assay (ANO6 ion channel activity)
# Type: cell-based
# CONDITIONS: test compound 1 μM, 10 μM ionomycin, read-out: Inhibition Level 1 μM
# Protocol: Example 3: YFP Quenching Assay 1. Materials and Instruments Ionomycin (Alomonelab cat. #I-700), FLUOstar Omega microplate reader (BMG Labtech, Ortenberg, Germany), and MARS Data Analysis Software (BMG Labtech) […] (1) YFP fluorescence signals were recorded in every 0.4 seconds. (2) Basal YFP fluorescence signals were recorded for 1 second. (3) 140 mM SCN-(50 μL) containing 10 μM ionomycin was injected to each well, and YFP fluorescence signals were recorded. […]
Entries annotated with measured inhibition at 1 µM

The following molecules have reported results that may help.
O=C(NC1CCN(Cc2ccccc2)CC1)c1cccc(Nc2ccc(-c3ccccc3)nn2)c1
≥ 60%
O=C(NC1CCCc2ccccc21)c1cccc(Nc2ccc(-c3ccccc3)nn2)c1 (centres unmarked)
30 to 60%
O=C(NCc1ccccc1)c1cccc(Nc2ccc(-c3ccc(F)cc3)nn2)c1
30 to 60%
Cc1ccc(CNC(=O)c2cccc(Nc3ccc(-c4ccsc4)nn3)c2)o1
≥ 60%
CC(C)NC(=O)c1cccc(Nc2ccc(-c3ccccc3)nn2)c1
≥ 60%
O=C(N[C@@H]1C[C@H]1c1ccccc1)c1cccc(Nc2ccc(-c3cccc(F)c3)cn2)c1
≥ 60%

Problem: Give human ANO6 (Homo sapiens) inhibition at 1 µM for Cc1cccc(CNC(=O)c2cccc(Nc3ccc(-c4ccccc4)nn3)c2)c1
Result: ≥ 60%

Problem: Give human ANO6 (Homo sapiens) inhibition at 1 µM for O=C(NC1CCCCCC1)c1cccc(Nc2ccc(-c3ccc(F)cc3)nn2)c1
Result: ≥ 60%

###

Entries annotated with measured inhibition at 1 µM
# SYSTEM UNDER TEST: human ANO6 (Homo sapiens, UniProt Q4KMQ2)
# Construct: expressed in transfected cells
# ASSAY REMARKS: LACT C2 assay (phosphatidylserine scramblase function assay)
# Type: cell-based
# CONDITIONS: test compound 1 μM, FRT cells expressing human ANO6, 10 μM ionomycin, read-out: Inhibition Level 1 μM

The following compounds have reported results that may help.
O=C(Nc1cccc([N+](=O)[O-])c1)c1cccc(Nc2ccc(-c3cccc(F)c3)cn2)c1
≥ 60%
O=C(NCC1(O)CC1)c1cccc(Nc2ccc(-c3ccccc3)nn2)c1
< 30%

Problem: Give human ANO6 (Homo sapiens, UniProt Q4KMQ2) inhibition at 1 µM for CCC(C)NC(=O)c1cccc(Nc2ccc(-c3ccccc3)nn2)c1 (stereo not shown)
Result: < 30%

Problem: Give human ANO6 (Homo sapiens, UniProt Q4KMQ2) inhibition at 1 µM for Cc1ccc(CNC(=O)c2cccc(Nc3ccc(-c4ccccc4)cn3)c2)o1
Result: ≥ 60%

Problem: Give human ANO6 (Homo sapiens, UniProt Q4KMQ2) inhibition at 1 µM for O=C(NCCN1CC2CCC1C2)c1cccc(Nc2ncc(-c3ccccc3)cn2)c1 (stereo not shown)
Result: < 30%

Problem: Give human ANO6 (Homo sapiens, UniProt Q4KMQ2) inhibition at 1 µM for O=C(NC1(c2ccccc2)CC1)c1cccc(Nc2ccc(-c3cccc(F)c3)cn2)c1
Result: 30 to 60%

Problem: Give human ANO6 (Homo sapiens, UniProt Q4KMQ2) inhibition at 1 µM for O=C(NCCCc1ccccc1)c1cccc(Nc2ccc(-c3ccccc3)nn2)c1
Result: 30 to 60%

Problem: Give human ANO6 (Homo sapiens, UniProt Q4KMQ2) inhibition at 1 µM for COC(=O)c1ccc(CCNC(=O)c2cccc(Nc3ncc(-c4cccc(F)c4)cn3)c2)cc1
Result: < 30%

Problem: Give human ANO6 (Homo sapiens, UniProt Q4KMQ2) inhibition at 1 µM for O=C(NCc1ccc(Br)cc1)c1cccc(Nc2ccc(-c3ccccc3)nn2)c1
Result: 30 to 60%

Problem: Give human ANO6 (Homo sapiens, UniProt Q4KMQ2) inhibition at 1 µM for O=C(NCCc1ccccc1)c1cccc(Nc2ccc(-c3cccc(F)c3)cn2)c1
Result: 30 to 60%

Problem: Give human ANO6 (Homo sapiens, UniProt Q4KMQ2) inhibition at 1 µM for O=C(NCc1ccc(C(F)(F)F)cc1)c1cccc(Nc2ncc(-c3cccc(F)c3)cn2)c1
Result: 30 to 60%

Problem: Give human ANO6 (Homo sapiens, UniProt Q4KMQ2) inhibition at 1 µM for COc1cccc(CNC(=O)c2cccc(Nc3ccc(-c4ccccc4)nn3)c2)c1
Result: 30 to 60%

Problem: Give human ANO6 (Homo sapiens, UniProt Q4KMQ2) inhibition at 1 µM for CCCCCNC(=O)c1cccc(Nc2ccc(-c3ccccc3)nn2)c1
Result: 30 to 60%

Problem: Give human ANO6 (Homo sapiens, UniProt Q4KMQ2) inhibition at 1 µM for O=C(NC1CCCCCC1)c1cccc(Nc2ccc(-c3ccccc3)nn2)c1
Result: ≥ 60%

Problem: Give human ANO6 (Homo sapiens, UniProt Q4KMQ2) inhibition at 1 µM for Cc1ccc(CNC(=O)c2cccc(Nc3ccc(-c4ccoc4)nn3)c2)o1
Result: ≥ 60%

Problem: Give human ANO6 (Homo sapiens, UniProt Q4KMQ2) inhibition at 1 µM for Cc1ccc(CNC(=O)c2cccc(Nc3ccc(-c4cccc(F)c4)cc3)c2)o1
Result: ≥ 60%

Problem: Give human ANO6 (Homo sapiens, UniProt Q4KMQ2) inhibition at 1 µM for CC(C)c1ccc(CNC(=O)c2cccc(Nc3ccc(-c4ccccc4)nn3)c2)cc1
Result: < 30%

###

# SYSTEM UNDER TEST: human ANO6 (Homo sapiens)
# Construct: expressed in transfected cells
# ASSAY REMARKS: LACT C2 assay (phosphatidylserine scramblase function assay)
# Format: cell-based
# CONDITIONS: test compound 100 nM, FRT cells expressing human ANO6, 10 μM ionomycin, read-out: Inhibition Level 100 nM
Entries annotated with measured inhibition at 0.1 µM

The following compounds have reported results that may help.
O=C(NC1CCCCCC1)c1cccc(Nc2ncc(-c3cccc(F)c3)cn2)c1
< 30%
CN1CCN(c2cc(F)ccc2CNC(=O)c2cccc(Nc3ccc(-c4ccccc4)nn3)c2)CC1
< 30%
Nc1ccccc1NC(=O)c1cccc(Nc2ccc(-c3cccc(F)c3)cn2)c1
< 30%
Cc1ccc(CNC(=O)c2cccc(Nc3ccc(-c4ccccc4)nn3)c2)cc1
< 30%
Cc1ccc(NC(=O)c2cccc(Nc3ncc(-c4cccc(F)c4)cn3)c2)cc1
< 30%

Problem: Give human ANO6 (Homo sapiens) inhibition at 0.1 µM for O=C(N[C@@H]1C[C@H]1c1ccc(F)c(F)c1)c1cccc(Nc2ccc(-c3ccccc3)nn2)c1
Result: 30 to 60%

Problem: Give human ANO6 (Homo sapiens) inhibition at 0.1 µM for O=C(NCC1CCCC1)c1cccc(Nc2ccc(-c3ccccc3)nn2)c1
Result: < 30%

Problem: Give human ANO6 (Homo sapiens) inhibition at 0.1 µM for O=C(N[C@@H]1C[C@H]1c1ccccc1)c1cccc(Nc2ncc(-c3cccc(F)c3)cn2)c1
Result: ≥ 60%

###

# SYSTEM UNDER TEST: human ANO6 (Homo sapiens, UniProt Q4KMQ2)
# Construct: expressed in transfected cells
# ASSAY REMARKS: LACT C2 assay (phosphatidylserine scramblase function assay)
# Format: cell-based
# CONDITIONS: test compound 100 nM, FRT cells expressing human ANO6, 10 μM ionomycin, read-out: Inhibition Level 100 nM
PARAMETER MEASURED: inhibition at 0.1 µM

N#Cc1cccc(NC(=O)c2cccc(Nc3ncc(-c4cccc(F)c4)cn3)c2)c1
< 30%
Cc1ccc(CCNC(=O)c2cccc(Nc3ncc(-c4ccccc4)cn3)c2)o1
< 30%
O=C(N[C@@H]1C[C@H]1c1ccccc1)c1cccc(Nc2ccc(-c3ccncn3)cc2)c1
≥ 60%

Problem: Give the measured inhibition at 0.1 µM of O=C(NCc1ccccc1)c1cccc(Nc2ccc(-c3cccc(F)c3)nn2)c1 .
Result: < 30%
